TEST_TARGET: biotinylated human D-SDF-1 (Homo sapiens)
PROTOCOL_DETAILS: pulldown
CONDITION_DETAILS: single Kd stated after naming 193-C2-002 and 193-G2-012
READOUT_NAME: Kd (nM)
Provide the reading as a plain figure in nM.

Can you share its Kd? I mean this sequence: GCGUGGUGUGAUCUAGAUGUAGUGGCUGAUCCUAGUCAGGUACGC [193-C2-002 (D)]
0.3

---

TEST_TARGET: human SDF-1alpha (CXCL12) (Homo sapiens) (UniProt P48061)
Sequence (P48061 22-89): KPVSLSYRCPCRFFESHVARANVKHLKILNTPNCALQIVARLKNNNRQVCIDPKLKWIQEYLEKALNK
PROTOCOL_DETAILS: SPR
CONDITION_DETAILS: L-RNA; 5'-40 kDa PEG; Biacore 2000, 37 C
READOUT_NAME: Kd (nM)
Provide the reading as a plain figure in nM.

Can you share its Kd? I mean this sequence: GCGUGGUGUGAUCUAGAUGUAUUGGCUGAUCCUAGUCAGGUACGC [NOX-A12 (193-G2-012-5'-PEG)]
0.2
